experimentSummary: ATG_EGR_CIS: Attagene CIS-FACTORIAL HepG2 Assay for human Early Growth Response 1 (EGR1) (AID 2282938)
recordedConditions: HepG2 Attagene CIS-FACTORIAL EGR reporter mRNA; actives raise or lower the signal
Active and inactive are the calls of the source. Rule for the calls: active = hit-call score of the fitted dose curve at least 0.9, where 1 is the maximum; inactive = score below 0.9.
Could you please pick one outcome from this set? active, inactive

Sample answers from the record:
Please let me know the test result on file for C/C=C/c1ccc(OC)cc1 .
inactive

Please let me know the test result on file for Cc1c(C)c2c(c(C)c1O)CCC(C)(COc1ccc(CC3SC(=O)NC3=O)cc1)O2 (centres undefined) .
inactive

Please let me know the test result on file for Cc1occc(=O)c1O .
inactive

Please let me know the test result on file for CCOCCOCCO .
inactive

Others:
Please let me know the test result on file for O=C1O[C@H]([C@H](O)CO)C(O)=C1O .
inactive

Please let me know the test result on file for O=C(NS(=O)(=O)/C=C/c1cccs1)c1ccc(F)cc1Br .
inactive

Please let me know the test result on file for CC(C)c1cccc(C(C)C)c1NC(=O)NS(=O)(=O)c1cc(C(C)(C)O)co1 .
inactive

Please let me know the test result on file for COc1ccc(OC(F)(F)F)cc1CN[C@H]1CCCN[C@H]1c1ccccc1 .
inactive

Please let me know the test result on file for CC(C)(O)c1ccc(CNC(=O)c2cccnc2Oc2ccc(F)cc2)cc1 .
inactive

Please let me know the test result on file for CS(=O)(=O)c1ccc([C@@H](C[C@H]2CCC(=O)C2)C(=O)Nc2cnccn2)cc1Cl .
inactive

Please let me know the test result on file for CC(N)=O .
inactive

Please let me know the test result on file for COC(=O)[C@H]1[C@H]2C[C@@H]3c4[nH]c5cc(OC)ccc5c4CCN3C[C@H]2C[C@@H](OC(=O)c2cc(OC)c(OC)c(OC)c2)[C@@H]1OC .
active

###

Read-out: Paternally Expressed 10 (PEG10), PEG10 (gene 23089)
experimentSummary: LTEA_HepaRG_PEG10: Life Technologies and Expression Analysis (LTEA) Assay for Paternally Expressed 10 (PEG10) using HepaRG (AID 2283520)
recordedConditions: mRNA level, 48 h; actives raise or lower the signal
The source made the active and inactive calls. Rule for the calls: active = hit-call score of the fitted dose curve at least 0.9, where 1 is the maximum; inactive = score below 0.9.
Could you please pick one outcome from this set? 1.0 for active, 0.0 for inactive

Please let me know the test result on file for CC(C)NCC(O)c1ccc(O)c(O)c1 (configuration not stated) .
1.0

Please let me know the test result on file for CO[C@@H]1COCC[C@@H]1N[C@@H]1CC[C@@](C(=O)N2CCc3ncc(C(F)(F)F)cc3C2)(C(C)C)C1 .
0.0

Please let me know the test result on file for O=C(O)c1[nH]n(-c2ccc(S(=O)(=O)O)cc2)c(=O)c1N=Nc1ccc(S(=O)(=O)O)cc1 .
0.0

Please let me know the test result on file for O=C(O)CN(CC(=O)O)CC(=O)O .
0.0

Please let me know the test result on file for S=c1[nH]c2ccccc2s1 .
0.0

Please let me know the test result on file for CC(=O)O .
0.0

Others:
Please let me know the test result on file for CSc1ccc(Oc2ccc(S(N)(=O)=O)cc2CN(C)C)cc1C .
1.0

Please let me know the test result on file for CCCC[C@H]1CN(CC2CCOCC2)C(=O)OC12CCN(C1(C)CCN(C(=O)c3c(C)ncnc3C)CC1)CC2 .
0.0

Please let me know the test result on file for O=[Si]=O .
0.0

Please let me know the test result on file for C=CCc1ccc(OC)c(OC)c1 .
0.0

Please let me know the test result on file for c1ccc2occc2c1 .
0.0

Please let me know the test result on file for Nc1nc(Cl)nc2c1ncn2[C@H]1C[C@H](O)[C@@H](CO)O1 .
1.0
